System: TOV-21G
Test: Cell viability analysis (WST-1), TOV-21G
Assay type: cell-based
Details: Homo sapiens, TOV21G, 72 h, Table 4, repeated experiments, drug 10 μM, read-out: survival rate (viability) of cancer cells, TOV-21G
Where a name gives a salt, the structure may show the parent alone.
Measured endpoint: viability at 10 µM (%)
The reply should contain only the number, in %.

Example results:
Molecule: COc1cc2nc(N3CCN(C(=O)c4ccco4)CC3)nc(N)c2cc1OC [Prazosin HCl]
Tested target: TOV-21G
Readout number: 91.9

Molecule: COC(=O)C1=C(C)NC(C)=C(C(=O)OC2CCCN(Cc3ccccc3)C2)C1c1cccc([N+](=O)[O-])c1 (stereo not drawn) [Benidipine hydrochloride]
Tested target: TOV-21G
Readout number: 47.5

Molecule: C[C@@H]1O[C@@H](O[C@H]2C[C@@H](O)[C@]3(CO)[C@H]4[C@H](O)C[C@]5(C)[C@@H](C6=CC(=O)OC6)CC[C@]5(O)[C@@H]4CC[C@]3(O)C2)[C@H](O)[C@H](O)[C@H]1O
Tested target: TOV-21G
Readout number: 15.9

Molecule: CCCCc1nc(Cl)c(CO)n1Cc1ccc(-c2ccccc2-c2nn[nH]n2)cc1
Tested target: TOV-21G
Readout number: 78.6

Molecule: COc1ccc(-c2nc3ccc(C4=NNC(=O)CC4C)cc3[nH]2)cc1 (stereo not drawn)
Tested target: TOV-21G
Readout number: 70.7

Form: molecule = CCC(C)(C)C(=O)O[C@H]1C[C@@H](C)C=C2C=C[C@H](C)[C@H](CC[C@@H]3C[C@@H](O)CC(=O)O3)[C@H]21 [Simvastatin (Zocor), Simvastatin] ; viability at 10 µM = 63.6

Form: molecule = OC(CNCC(O)C1CCc2cc(F)ccc2O1)C1CCc2cc(F)ccc2O1 (stereo not drawn) ; viability at 10 µM = 86.2

Form: molecule = COC(=O)C1=C(C)NC(C)=C(C(=O)OCC(C)C)C1c1ccccc1[N+](=O)[O-] (stereo not drawn) [Nisoldipine (Sular), Nisoldipine] ; viability at 10 µM = 44.4

Form: molecule = COCCOC(=O)C1=C(C)NC(C)=C(C(=O)OC/C=C/c2ccccc2)C1c1cccc([N+](=O)[O-])c1 (stereo not drawn) ; viability at 10 µM = 62.9

Form: molecule = CC(C)N(CCC(C(N)=O)(c1ccccc1)c1ccccn1)C(C)C (stereo not drawn) [Disopyramide Phosphate] ; viability at 10 µM = 94.3

Form: molecule = CC(C)n1c(/C=C/C(O)CC(O)CC(=O)O)c(-c2ccc(F)cc2)c2ccccc21 (stereo not drawn) [Fluvastatin sodium (Lescol), Fluvastatin sodium] ; viability at 10 µM = 50.5

Form: molecule = `CCC[C@H](N[C@@H](C)C(=O)N1[C@H](C(=O)O)C[C@@H]2CCCC[C@@H]21)C(=O)OCC` ; viability at 10 µM = 71.2
